Biological target: flPOT1 P475L;TPP1(87) (Homo sapiens;Homo sapiens, UniProt Q9NUX5;Q96AP0 1-634;1-458, P475L|)
Sequence (Q9NUX5 whole entry P475L, chain 1 of 2): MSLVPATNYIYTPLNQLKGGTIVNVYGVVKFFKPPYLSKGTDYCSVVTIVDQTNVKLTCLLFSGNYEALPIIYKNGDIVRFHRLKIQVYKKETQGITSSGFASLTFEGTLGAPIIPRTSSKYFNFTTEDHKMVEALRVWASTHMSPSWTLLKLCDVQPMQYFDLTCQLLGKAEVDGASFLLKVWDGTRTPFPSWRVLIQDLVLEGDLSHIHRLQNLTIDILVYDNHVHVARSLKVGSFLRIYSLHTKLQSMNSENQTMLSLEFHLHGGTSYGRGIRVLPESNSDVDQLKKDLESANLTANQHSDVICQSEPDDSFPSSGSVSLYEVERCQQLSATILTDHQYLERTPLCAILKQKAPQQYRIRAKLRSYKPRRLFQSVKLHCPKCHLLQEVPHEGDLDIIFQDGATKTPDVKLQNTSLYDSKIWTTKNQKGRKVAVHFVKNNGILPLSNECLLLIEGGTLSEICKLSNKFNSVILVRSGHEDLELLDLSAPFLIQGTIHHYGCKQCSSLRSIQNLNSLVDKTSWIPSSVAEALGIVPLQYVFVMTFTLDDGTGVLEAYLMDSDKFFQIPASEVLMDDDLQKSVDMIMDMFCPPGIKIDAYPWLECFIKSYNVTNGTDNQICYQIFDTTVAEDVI
Sequence (Q96AP0 whole entry, chain 2 of 2): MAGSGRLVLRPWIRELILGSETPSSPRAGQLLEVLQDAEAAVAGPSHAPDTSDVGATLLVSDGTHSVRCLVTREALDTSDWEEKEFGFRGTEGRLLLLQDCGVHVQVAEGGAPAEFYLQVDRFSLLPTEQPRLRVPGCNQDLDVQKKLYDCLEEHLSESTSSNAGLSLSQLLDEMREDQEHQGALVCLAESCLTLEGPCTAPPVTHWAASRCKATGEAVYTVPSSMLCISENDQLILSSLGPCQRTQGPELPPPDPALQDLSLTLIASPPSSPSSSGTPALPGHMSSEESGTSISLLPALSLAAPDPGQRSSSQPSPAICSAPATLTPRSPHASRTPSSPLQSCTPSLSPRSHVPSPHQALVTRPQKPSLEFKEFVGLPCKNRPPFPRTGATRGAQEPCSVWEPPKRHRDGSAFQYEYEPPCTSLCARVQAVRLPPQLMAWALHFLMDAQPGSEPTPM
Experiment: fluorescence polarization; FP: 20 mM Hepes pH 7.5, 100 mM KCl, 2 mM MgCl2, 1 mM EDTA, 2 mM DTT, 1 mg/ml BSA, 5% glycerol, 75 nM polyT50 competitor, 2.5 nM probe, room temperature 30 min
Settings: protein: recombinant;recombinant, tags: N-terminal His6-pMocr, TEV-cleaved;N-terminal His6-MBP, copies: 1;1, label: 5' 6-FAM, single strand
result-type: pKd
Schema: pKd number; meaning minus log10 of the concentration expressed in molar units.

Query: I would be grateful if you could share the reported pKd for TTAGGGTTAGGGTTAGGG (ssDNA) [telomeric 18mer (TTAGGG)3] .
Response: 7.97
